Please go through the items and note down their APOE RNA (% control) Spinal Cord.
test system: human APOE RNA; assay: Activity in APOE C57BL/6NTac-Apoeem7250 knock-in mice, single ICV bolus, 8 weeks (Example 11); assay type: in vivo; settings: spinal cord; single ICV bolus 300 μg; 8 weeks post treatment; normalized to mouse Ppia
Strand notation (5' to 3'): a small letter for the sugar, then the base; units joined by * are phosphorothioate-linked, units joined directly phosphodiester-linked; [ ] holds rarer units or linkages, { } end groups; capitals alone tell only the bases. [ms] = mesyl phosphoramidate linkage; e = 2'-O-(2-methoxyethyl) (MOE); k = constrained ethyl (cEt); [5mC] = 5-methylcytosine; d = 2'-deoxy (DNA)
The figure you give is taken to be in % control; do not add the unit.

Please indicate APOE RNA (% control) Spinal Cord recorded for 1652919: 6-10-4 MOE gapmer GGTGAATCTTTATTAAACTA, linkages soooooszzzssssssoss (antisense eG*eGeTeGeAeAdT*d[5mC][ms]dT[ms]dT[ms]dT*dA*dT*dT*dA*dA*eAe[5mC]*eT*eA) [compound 1652919]
54

Give reported APOE RNA (% control) Spinal Cord value for 1746784 (k[5mC]*kT*kT*dG[ms]dG[ms]dT[ms]dG[ms]dA[ms]dA[ms]dT*d[5mC]*dT*dT*dT*dA[ms]dT*kT*kA*dA[ms]kA; antisense) [Compound 1746784]
138

Output APOE RNA (% control) Spinal Cord of 1746799 (k[5mC]*dT[ms]kT*dG[ms]kG*dT[ms]dG[ms]dA[ms]dA[ms]dT*d[5mC]*dT*dT*dT*dA[ms]dT*kT*dA[ms]kA*kA; antisense) [Compound 1746799]
39

// Input: 1652910: 5-10-5 MOE gapmer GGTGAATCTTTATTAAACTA, linkages sooosszzsssssssooss (antisense eG*eGeTeGeA*dA*dT[ms]d[5mC][ms]dT*dT*dT*dA*dT*dT*dA*eAeAe[5mC]*eT*eA) [compound 1652910] . Output its APOE RNA (% control) Spinal Cord only.
39

----------
system: human APOE RNA; assay: Dose-dependent reduction of human APOE RNA in HepG2 cells, electroporation, 20,000 cells per well, normalized to PPIA (Example 4, Table 11); type: cell-based; settings: HepG2 cells, 20,000 cells per well, approximately 24 hours, PPIA-normalized, 1,280 nM
Strand notation (5' to 3'): a small letter for the sugar, then the base; units joined by * are phosphorothioate-linked, units joined directly phosphodiester-linked; [ ] holds rarer units or linkages, { } end groups; capitals alone tell only the bases. [ms] = mesyl phosphoramidate linkage; e = 2'-O-(2-methoxyethyl) (MOE); k = constrained ethyl (cEt); [5mC] = 5-methylcytosine; d = 2'-deoxy (DNA)
Kindly state APOE RNA (% UTC) 1,280 nM for each of the entries shown.

Tell me measured APOE RNA (% UTC) 1,280 nM for ^mCksTksTksGdzGdzTdzGdzAdzAdzTds^mCdsTdsTdsTdsAdsTdsTksAksAdzAk (antisense k[5mC]*kT*kT*dG[ms]dG[ms]dT[ms]dG[ms]dA[ms]dA[ms]dT*d[5mC]*dT*dT*dT*dA*dT*kT*kA*dA[ms]kA) [Compound No. 1785602] please.
16 % UTC

Provide one value: measured APOE RNA (% UTC) 1,280 nM of TezTeoGeoGksTdsGdzAdzAdzTds^mCdsTdsTdsTdsAdzTksTksAesAesAes^mCe (antisense eT[ms]eTeGkG*dT*dG[ms]dA[ms]dA[ms]dT*d[5mC]*dT*dT*dT*dA[ms]kT*kT*eA*eA*eA*e[5mC]) [Compound No. 1809814]
19 % UTC

Tell me measured APOE RNA (% UTC) 1,280 nM for Aks^mCeoTeoTesGesGksTdsGdzAdzAdzTds^mCdsTdsTdsTdsAdzTksTksAesAe (kA*e[5mC]eTeT*eG*kG*dT*dG[ms]dA[ms]dA[ms]dT*d[5mC]*dT*dT*dT*dA[ms]kT*kT*eA*eA) [Compound No. 1809635] please.
18 % UTC

Give the value of APOE RNA (% UTC) 1,280 nM reported for the following: Aes^mCeoTeoTesGesGksTdsGdzAdzAdzTds^mCdsTdsTdsTdsAdzTksTksAesAe (eA*e[5mC]eTeT*eG*kG*dT*dG[ms]dA[ms]dA[ms]dT*d[5mC]*dT*dT*dT*dA[ms]kT*kT*eA*eA) [Compound No. 1757576]
12 % UTC
